Recorded IC50, one value per entry.
tgt: CDK9/Cyclin T1 complex (Homo sapiens, UniProt P50750)
Sequence (P50750 whole entry): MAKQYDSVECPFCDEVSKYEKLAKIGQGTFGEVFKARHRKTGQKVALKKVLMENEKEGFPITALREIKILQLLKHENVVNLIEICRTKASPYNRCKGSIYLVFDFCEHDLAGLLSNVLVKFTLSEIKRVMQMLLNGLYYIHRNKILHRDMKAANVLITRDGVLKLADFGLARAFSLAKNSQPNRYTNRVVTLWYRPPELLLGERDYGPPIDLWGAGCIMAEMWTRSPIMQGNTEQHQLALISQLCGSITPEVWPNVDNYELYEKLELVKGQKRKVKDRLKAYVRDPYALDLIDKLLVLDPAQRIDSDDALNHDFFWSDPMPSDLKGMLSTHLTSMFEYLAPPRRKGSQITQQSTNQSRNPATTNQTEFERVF
Sequence (O60563 whole entry partner): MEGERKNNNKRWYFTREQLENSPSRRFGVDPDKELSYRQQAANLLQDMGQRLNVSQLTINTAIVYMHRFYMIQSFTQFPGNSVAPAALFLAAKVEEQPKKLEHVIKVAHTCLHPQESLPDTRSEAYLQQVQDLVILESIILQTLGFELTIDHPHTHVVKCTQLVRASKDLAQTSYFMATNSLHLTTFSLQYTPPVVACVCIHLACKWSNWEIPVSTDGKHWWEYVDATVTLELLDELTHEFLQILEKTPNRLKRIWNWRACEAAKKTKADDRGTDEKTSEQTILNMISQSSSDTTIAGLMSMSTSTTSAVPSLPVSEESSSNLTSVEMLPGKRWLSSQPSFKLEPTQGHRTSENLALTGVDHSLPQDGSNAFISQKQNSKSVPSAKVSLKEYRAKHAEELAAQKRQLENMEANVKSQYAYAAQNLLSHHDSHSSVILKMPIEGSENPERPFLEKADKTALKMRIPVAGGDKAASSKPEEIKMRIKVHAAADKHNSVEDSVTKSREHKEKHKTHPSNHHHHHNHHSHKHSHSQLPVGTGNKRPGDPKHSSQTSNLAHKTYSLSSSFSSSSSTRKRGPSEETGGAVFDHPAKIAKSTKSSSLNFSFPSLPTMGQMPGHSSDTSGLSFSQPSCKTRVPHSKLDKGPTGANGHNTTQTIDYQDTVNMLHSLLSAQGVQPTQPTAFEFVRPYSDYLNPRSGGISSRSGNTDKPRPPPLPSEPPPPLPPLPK
experiment description: CDK9 kinase inhibition assay (Caliper/LabChip EZ Reader)
metric name: IC50

molecule | metric name | measurement
Cc1noc(C)c1-c1ccc2c(-c3nc(N[C@H]4CCC[C@@H]4N)ncc3C(F)(F)F)c[nH]c2c1 | IC50 | > 500 nM
CCN[C@H]1CCC[C@@H]1Nc1ncc(C(F)(F)F)c(-c2c[nH]c3nc(-c4c(C)noc4C)ccc23)n1 | IC50 | > 500 nM
Cc1noc(C)c1-c1ccc2c(-c3nc(N[C@H]4CCC[C@@H]4N4CCC4)ncc3C(F)(F)F)c[nH]c2n1 | IC50 | > 500 nM
Cc1noc(C)c1-c1ccc2c(-c3nc(N[C@H]4C[C@H]5CC[C@@H]4N5)ncc3C(F)(F)F)c[nH]c2n1 | IC50 | > 500 nM
Cc1noc(C)c1-c1ccc2c(-c3nc(N[C@@H]4C[C@@H]5CC[C@H]4N5)ncc3C(F)(F)F)c[nH]c2n1 | IC50 | > 500 nM
CCN[C@H]1CC[C@@H]1Nc1ncc(C(F)(F)F)c(-c2c[nH]c3cc(C#N)ccc23)n1 | IC50 | > 500 nM
Cc1noc(C)c1-c1ccc2c(-c3nc(N[C@H]4CCCC4N4CCCC4)ncc3C(F)(F)F)c[nH]c2n1 (stereo partly shown) | IC50 | > 500 nM
